Measured values drawn from ChEMBL document CHEMBL5518181 for this set.

test summary: Observed clearance in Swiss mouse at 10 mg/kg, iv administered as single bolus dose and measured upto 24 hrs by LC-MS/MS analysis
Format: ADME, organism-based
experimental context: in vivo
recorded metric: clearance (mL/min/kg)

[
  {
    "smiles representation": "CC[C@H](C)[C@@H](NC(=O)[C@@H](NC(=O)[C@H](CCC(=O)O)NC(=O)[C@H](Cc1ccccc1)NC(=O)[C@@H](CCN)NC(=O)[C@H](CCN)NC(=O)[C@H](CO)NC(=O)[C@@H](Cc1c[nH]c2ccccc12)NC(=O)[C@@H](CO)NC(=O)CNC(=O)[C@@H](CCN)NC(=O)[C@H](NC(=O)[C@H](C)N)C(C)C)C(C)C)C(=O)N[C@@H](C)C(=O)O",
    "u": "mL/min/kg",
    "reported measurement": 2
  }
]
